Value source: the kinase profiling compilation of Christmann-Franck et al. (2016)

# target.of.assay: UniProt P14616
# Sequence (P14616 whole entry, looked up): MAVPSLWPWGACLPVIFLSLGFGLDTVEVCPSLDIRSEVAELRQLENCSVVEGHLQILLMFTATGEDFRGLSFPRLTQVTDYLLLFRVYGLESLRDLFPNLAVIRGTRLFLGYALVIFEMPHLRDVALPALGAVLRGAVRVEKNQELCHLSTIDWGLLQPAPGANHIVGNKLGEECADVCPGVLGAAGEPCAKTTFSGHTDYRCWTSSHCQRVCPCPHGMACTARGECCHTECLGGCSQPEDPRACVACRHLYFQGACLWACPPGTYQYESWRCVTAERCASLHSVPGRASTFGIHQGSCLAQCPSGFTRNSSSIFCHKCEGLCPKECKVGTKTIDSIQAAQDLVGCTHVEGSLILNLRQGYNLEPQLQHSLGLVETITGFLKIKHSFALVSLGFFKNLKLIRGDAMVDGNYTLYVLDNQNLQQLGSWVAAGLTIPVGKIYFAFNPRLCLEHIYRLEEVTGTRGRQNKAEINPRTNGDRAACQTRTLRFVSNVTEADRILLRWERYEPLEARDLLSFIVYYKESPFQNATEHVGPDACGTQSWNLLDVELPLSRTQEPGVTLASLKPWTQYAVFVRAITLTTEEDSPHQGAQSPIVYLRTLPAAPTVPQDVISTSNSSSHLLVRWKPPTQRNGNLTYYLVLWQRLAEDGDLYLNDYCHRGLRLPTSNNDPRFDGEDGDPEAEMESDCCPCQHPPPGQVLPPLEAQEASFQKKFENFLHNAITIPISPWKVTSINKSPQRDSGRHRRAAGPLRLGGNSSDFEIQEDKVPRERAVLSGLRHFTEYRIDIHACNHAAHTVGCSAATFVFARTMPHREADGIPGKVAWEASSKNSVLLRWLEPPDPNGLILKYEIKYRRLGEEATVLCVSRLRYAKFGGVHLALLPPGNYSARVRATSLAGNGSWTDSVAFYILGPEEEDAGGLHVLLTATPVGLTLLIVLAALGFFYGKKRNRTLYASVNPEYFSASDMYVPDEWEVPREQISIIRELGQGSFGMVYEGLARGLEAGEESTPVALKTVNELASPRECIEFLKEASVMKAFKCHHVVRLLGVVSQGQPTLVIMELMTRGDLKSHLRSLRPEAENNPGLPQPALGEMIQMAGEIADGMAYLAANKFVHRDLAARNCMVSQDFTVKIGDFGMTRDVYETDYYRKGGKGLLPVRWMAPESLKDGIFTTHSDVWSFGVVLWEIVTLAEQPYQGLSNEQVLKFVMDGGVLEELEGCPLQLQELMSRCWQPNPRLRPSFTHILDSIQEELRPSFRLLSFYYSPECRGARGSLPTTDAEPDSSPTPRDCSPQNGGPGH
# protocol.summary: radiometric filter-binding kinase assay
# run.conditions: compound 0.1 µM
measured.metric: residual activity (%)

compound	target.of.assay	units.text	residual activity
NC(=O)Nc1ccc2c(c1)/C(=C/c1cc(-c3cccnc3)c[nH]1)C(=O)N2	UniProt P14616	%	35

1. C=CC(=O)N1CCC[C@@H](n2nc(-c3ccc(Oc4ccccc4)cc3)c3c(N)ncnc32)C1
2. C/C(=C1/C(=O)Nc2ccc(NC(N)=O)cc21)c1ccc[nH]1
Request: Hey, between 1 and 2 which has a smaller measured residual activity? Pick one; state its label.
Result: 2
(2: 47%, 1: 94%)

1. COc1ccc(-n2ncc3cnc(Nc4cc(OC)c(OC)c(OCCCN5CCN(C)CC5)c4)nc32)cc1
2. CNC(=O)C1[C@H]2O[C@@](C)([C@@H]1N)n1c3ccccc3c3c4c(c5c6ccccc6n2c5c31)C(=O)NC4 (some centres undefined)
Request: Between 1 and 2 , which one shows the larger residual activity value? Pick one; state its label.
Result: 1
(1: 78%, 2: 12%)

1. O=C(Nc1nc2cc(C(F)(F)F)cc(NC3CC3)n2n1)c1cccnc1
2. Cc1ccc(Sc2cnc(Nc3cccc(Br)n3)s2)cc1C(=O)N1CCN(C(=O)CN)CC1
Request: Hey, between 1 and 2 which has a smaller measured residual activity? Pick one; state its label.
Result: 2
(2: 69%, 1: 104%)

###

# target.of.assay: TBK1 (human)
# protocol.summary: radiometric filter-binding kinase assay
# run.conditions: compound 1.0 µM
measured.metric: residual activity (%)

See these solved cases before continuing.
C[C@H]1CCCC(=O)CCC/C=C/c2cc(O)cc(O)c2C(=O)O1 82
Cc1cc(NC(=O)c2cccc(NC(=O)/C=C/CN(C)C)c2)ccc1Nc1nccc(-c2cccnc2)n1 106

a. Cc1nc(-c2ccc(OCC(C)C)c(C#N)c2)sc1C(=O)O
b. c1ccc2c(-c3cnn4cc(-c5ccc(N6CCNCC6)cc5)cnc34)ccnc2c1
c. NC(=O)Nc1ccc2c(c1)/C(=C/c1cc(-c3cccnc3)c[nH]1)C(=O)N2
Request: Place the items in sequence of falling residual activity. API: response body holds the labels in the requested order.
Result: a, b, c
(a: 127%, b: 62%, c: 7%)

###

# target.of.assay: BRSK2 (human)
# protocol.summary: radiometric filter-binding kinase assay
# run.conditions: compound 1.0 µM
measured.metric: residual activity (%)

See these solved cases before continuing.
compound	units.text	test.result
C=CC(=O)N1CCC[C@@H](n2nc(-c3ccc(Oc4ccccc4)cc3)c3c(N)ncnc32)C1	%	91
Cc1ccc(=O)n(-c2ccccc2)c1	%	106
NS(=O)(=O)OC[C@@H]1C[C@@H](n2ccc3c(N[C@H]4CCc5ccccc54)ncnc32)C[C@@H]1O	%	92
COc1ccc(-n2ncc3cnc(Nc4cc(OC)c(OC)c(OCCCN5CCN(C)CC5)c4)nc32)cc1	%	35
O=C(Nc1nc2cc(C(F)(F)F)cc(NC3CC3)n2n1)c1cccnc1	%	109
COc1cc(C(=O)N2CCOCC2)c(F)cc1Nc1ncc(C(F)(F)F)c(NC2CC2)n1	%	88
COc1cc(O)c2c(c1)[C@H]1OC1C[C@H](O)[C@H](O)C(=O)/C=C\C[C@H](C)OC2=O (stereo not given in full)	%	96
NC(=O)c1cc(-c2ccnc(NC3CCCCC3)c2)nc(N2CCNCC2)c1	%	26

1. CNC(=O)C1[C@H]2O[C@@](C)([C@@H]1N)n1c3ccccc3c3c4c(c5c6ccccc6n2c5c31)C(=O)NC4 (stereo not given in full)
2. O=C(NOCC(O)CO)c1ccc(F)c(F)c1Nc1ccc(I)cc1Cl (stereo not given)
Request: Between 1 and 2 , which one shows the larger residual activity value? Pick one; state its label.
Result: 2
(2: 108%, 1: 8%)
